Values were extracted from the supplement of paper PMC10498489.

Srxn1-GFP intensity median modified Z-score for assorted compounds
# Tested on: HepG2 Srxn1-GFP reporter cells (+30 nM CDDO-Me)
# test: Srxn1-GFP intensity median modified Z-score relative to plate median; higher = stronger NRF2 / oxidative stress reporter activation, active = hit call of the paper
# condition_set: 10 µM; exposure time: 24h
In all, about 2,300 compounds went through this assay and about 330 (14%) showed activity. A selection follows.
Could you respond with only the numeric value?

CC(=O)/N=c1\sc(S(N)(=O)=O)nn1C [euspeclibcmpd555]; 0.456

Okay, now this compound:
Give the measured Srxn1-GFP intensity median modified Z-score of Cc1cc(-c2ccccc2)n[nH]c1=NCCN1CCOCC1 [euspeclibcmpd383] .
1.08

---

Attribute: Srxn1-GFP intensity median modified Z-score
# System: HepG2 Srxn1-GFP reporter cells (+30 nM CDDO-Me)
# test: Srxn1-GFP intensity median modified Z-score relative to plate median; higher = stronger NRF2 / oxidative stress reporter activation, active = hit call of the paper
# condition_set: 10 µM; exposure time: 24h
About 330 (14%) of roughly 2,300 compounds showed activity. Not all results are given here.

Some compounds with known Srxn1-GFP intensity median modified Z-score results, for comparison:
O=C(/C=C/c1ccccc1)c1ccc(O[C@@H]2O[C@H](CO)[C@@H](O)[C@H](O)[C@H]2O)cc1O [euspeclibcmpd1690]; -0.0185 (inactive)
CC(C)CCCC(C)C1CCC2C3CC[C@H]4CC(=O)CC[C@]4(C)C3CC[C@]12C (stereo not given in full) [euspeclibcmpd1405]; -0.338 (inactive)
O=C(C=Cc1ccc(O)cc1)c1ccc(O)cc1O [euspeclibcmpd1984]; 13.1 (active)
COc1cc(=NS(=O)(=O)c2ccc(N)cc2)[nH]cn1 [euspeclibcmpd400]; -0.55 (inactive)
O=C(C=Cc1ccccc1)c1ccc(O)cc1O [euspeclibcmpd1990]; 2.48 (active)
CC(=O)OCC(=O)[C@@]1(O)[C@H](OC(C)=O)CC2C3CC=C4CC(=O)C=C[C@]4(C)[C@@]3(F)[C@@H](O)C[C@@]21C (stereo not given in full) [euspeclibcmpd1284]; -0.169 (inactive)

Provide the documented Srxn1-GFP intensity median modified Z-score with HepG2 Srxn1-GFP reporter cells (+30 nM CDDO-Me) as the system for CC1=C(CCC(=O)O)c2cc3nc(cc4[nH]c(cc5[nH]c(cc1n2)c(C)c5C(C)O)c(C)c4C(C)O)C(C)=C3CCC(=O)O (stereo not given) [euspeclibcmpd1687]
8.82 (active)

Give recorded Srxn1-GFP intensity median modified Z-score with HepG2 Srxn1-GFP reporter cells (+30 nM CDDO-Me) for the following compound: COc1ccc(O)c(C(=O)/C=C/c2ccc(F)cc2)c1
1.36 (inactive)

Give HepG2 Srxn1-GFP reporter cells (+30 nM CDDO-Me) Srxn1-GFP intensity median modified Z-score for Cc1ccc2[nH]c3c(c2c1)CC(Nc1ccc(CCC(=O)N2CCCC2)cc1)CC3 (stereo not given)
4.66 (active)

Please provide the recorded Srxn1-GFP intensity median modified Z-score for CC(NC(CCc1ccccc1)C(=O)O)C(=O)N1Cc2ccccc2CC1C(=O)O (stereo not given) [euspeclibcmpd841] , tested on HepG2 Srxn1-GFP reporter cells (+30 nM CDDO-Me).
-0.626 (inactive)

---

# System: HepG2 Srxn1-GFP reporter cells (+30 nM CDDO-Me)
# test: Srxn1-GFP intensity median modified Z-score relative to plate median; higher = stronger NRF2 / oxidative stress reporter activation, active = hit call of the paper
# condition_set: 10 µM; exposure time: 24h
The campaign covered roughly 2,300 compounds. About 330 (14%) showed activity.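 How the source made its calls: active = median modified Z-score above 1.96; inactive = 1.96 or below.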 Not all results are given here.
Select the correct class. Options are Yes for active, No for inactive and nothing else.

Example cases with answers are listed next.
C=Cc1c(C=c2[nH]c(=Cc3[nH]c(C=c4[nH]c(O)c(C=C)c4=C)c(C)c3CCC(=O)O)c(CCC(=O)O)c2C)[nH]c(O)c1C; No
COC(=O)C(NC(=O)CCCCn1cnc2c(N)ncnc21)C(C)C (stereo not given); No
Cc1ccc(NC(=O)c2ccc(CN3CCN(C)CC3)cc2)cc1N=c1nc(-c2cccnc2)cc[nH]1; Yes

Kindly provide the recorded test outcome for the following molecule: CCNCC(O)COc1ccc(CCOC)cc1 (stereo not given)
No

Record lookup: outcome of this test for CCn1cc(N(CC(C)C)S(=O)(=O)CCC2CCOCC2)cn1 ?
No

What call does the record list for N=c1[nH]cnc2c1ncn2[C@@H]1O[C@H](COP(=O)(O)OP(=O)(O)OC[C@H]2O[C@@H]([n+]3cccc(C(N)=O)c3)[C@H](O)[C@@H]2O)[C@@H](O)[C@H]1O ?
No

GET /call?item= CSc1nc2cc(Cl)c(Oc3cccc(Cl)c3Cl)cc2[nH]1 returns the recorded outcome of this test.
Yes
